Cited source for all entries: patent US20240270857A1

Target: T1, Human IL-1Rrp2/IL-1R6 protein, His Tag (ACROBiosystems, IL2-H52H6) (human, UniProt Q9HB29 20-335)
T1 construct: Bought protein; the soluble protein is likely only the extracellular part; also called hIL-36R; human IL36R antigen; not shown: His tag
T1 sequence: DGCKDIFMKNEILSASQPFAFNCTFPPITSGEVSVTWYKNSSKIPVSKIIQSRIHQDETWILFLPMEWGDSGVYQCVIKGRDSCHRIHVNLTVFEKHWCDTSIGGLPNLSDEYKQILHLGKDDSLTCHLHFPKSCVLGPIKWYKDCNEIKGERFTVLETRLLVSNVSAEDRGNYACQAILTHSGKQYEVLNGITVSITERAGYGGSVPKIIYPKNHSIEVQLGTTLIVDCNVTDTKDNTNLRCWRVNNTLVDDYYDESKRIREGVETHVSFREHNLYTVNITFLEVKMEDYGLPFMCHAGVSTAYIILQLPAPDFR
Experiment: BLI (ForteBio Octet), antibody on ProA sensor, 1:1 model
Assay Metric: Kd (nM)
Give just the numeric value; nM need not be written.

# annotated cases, reported Kd shown
>  <Binder>
hz84C4-2.1 (antibody, human IgG4 S228P, kappa, V domains shown, Humanized, human IgG4 / kappa) VH: QVQLVQSGAEVKKPGASVKVSCKASGYFFTSYWMNWVRQAPGQGLEWMGMIHPYDSETRYAQKFQGRVTMTVDKSTSTVYMELSSLRSEDTAVYYCASSTTAFAYWGQGTLVTVSS VL: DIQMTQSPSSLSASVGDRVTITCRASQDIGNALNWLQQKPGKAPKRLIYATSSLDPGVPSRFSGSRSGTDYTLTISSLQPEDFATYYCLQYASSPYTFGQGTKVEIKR

>  <Unit Of Measure>
nM

>  <Assay Value>
1.22

$$$$
>  <Binder>
hz84C4-2.3 (antibody, human IgG4 S228P, kappa, V domains shown, Humanized, human IgG4 / kappa) VH: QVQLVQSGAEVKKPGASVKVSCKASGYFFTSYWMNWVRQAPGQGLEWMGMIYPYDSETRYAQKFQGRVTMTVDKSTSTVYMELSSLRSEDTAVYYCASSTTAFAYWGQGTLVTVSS VL: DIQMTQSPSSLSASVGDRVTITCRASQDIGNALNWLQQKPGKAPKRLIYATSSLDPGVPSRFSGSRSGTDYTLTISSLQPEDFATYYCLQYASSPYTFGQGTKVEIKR

>  <Unit Of Measure>
nM

>  <Assay Value>
0.831

$$$$
>  <Binder>
hz84C4-1.4 (antibody, human IgG4 S228P, kappa, V domains shown, Humanized, human IgG4 / kappa) VH: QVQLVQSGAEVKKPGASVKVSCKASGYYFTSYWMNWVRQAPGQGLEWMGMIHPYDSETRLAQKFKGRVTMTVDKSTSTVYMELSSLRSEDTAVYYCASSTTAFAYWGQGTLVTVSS VL: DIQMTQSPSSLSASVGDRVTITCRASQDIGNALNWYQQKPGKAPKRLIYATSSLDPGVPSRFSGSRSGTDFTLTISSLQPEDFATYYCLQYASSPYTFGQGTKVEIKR

>  <Unit Of Measure>
nM

>  <Assay Value>
1.98

$$$$
>  <Binder>
hz84C4-1.1 (antibody, human IgG4 S228P, kappa, V domains shown, Humanized, human IgG4 / kappa) VH: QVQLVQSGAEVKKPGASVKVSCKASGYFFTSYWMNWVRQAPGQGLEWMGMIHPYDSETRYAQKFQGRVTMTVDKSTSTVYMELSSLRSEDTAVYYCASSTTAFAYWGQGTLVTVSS VL: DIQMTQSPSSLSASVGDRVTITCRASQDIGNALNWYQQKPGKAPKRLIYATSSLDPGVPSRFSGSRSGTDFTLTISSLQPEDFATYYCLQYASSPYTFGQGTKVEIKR

>  <Unit Of Measure>
nM

>  <Assay Value>
0.958

$$$$

Prompt line: Provide only the value of recorded Kd for hz84C4-2.2 (antibody, human IgG4 S228P, kappa, V domains shown, Humanized, human IgG4 / kappa) VH: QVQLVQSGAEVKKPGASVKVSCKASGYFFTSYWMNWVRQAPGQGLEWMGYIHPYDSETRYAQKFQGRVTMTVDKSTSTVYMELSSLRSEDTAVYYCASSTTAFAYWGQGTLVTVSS VL: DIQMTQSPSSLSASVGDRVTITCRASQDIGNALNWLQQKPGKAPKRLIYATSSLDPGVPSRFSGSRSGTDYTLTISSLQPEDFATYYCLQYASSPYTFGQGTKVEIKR
Response line: 1.55
